The origin of these recorded values is patent US20240309109A1.

Target: CD38 (antigen of the Bioveris affinity determination) (Homo sapiens (Human), UniProt P28907 45-300, limits assumed)
Experiment: Bioveris, Fab format
TEST READOUT: pKd
// scale note: pKd = -log10(conc_M); give the bare number

Q) Using the record for MOR06204 Fab (Fab, V domains shown, Fab format) VH: QVQLVESGGGLVQPGGSLRLSCAASGFTFSSYAMNWVRQAPGKGLEWVSHIRKKNTSYTTEYAASVKGRFTISRDNSKNTLYLQMNSLRAEDTAVYYCAREDGSYMTDYFAYWGQGTLVTVSS VL: DIELTQPPSVSVAPGQTARISCSGDNIGHYYVSWYQQKPGQAPVLVIYSDSNRPSGIPERFSGSNSGNTATLTISGTQAEDEADYYCQSYNGTYVFGGGTKLTVL , report its pKd.
A) 10.23
